Cited source: patent US20190119200A1

Target: LPAR1 (Homo sapiens)
Construct: host or cells: U2OS
Test: LPAR1 Arrestin Assay (arrestin reporter assay)
Format: cell-based
Settings: U2OS cells stably expressing the LPAR1 receptor; 200 nM 18:1 LPA (EC80); read-out: Maximum Inhibition

COMPOUND: COc1cc(C(=O)N(CCCc2ccccc2)CCSCCC(=O)O)cc(OC)c1C
Emax / %: 110
//
COMPOUND: COc1cc(C(=O)N(CCCc2ccccc2)CCC[C@H](C)C(=O)O)cc(OC)c1C (single isomer, unassigned)
Emax / %: 103
//
COMPOUND: COc1cc(C(=O)N(CCCc2cccc(Cl)c2)CCOCC(=O)O)cc(OC)c1C
Emax / %: 111
//
COMPOUND: COc1cc(C(=O)N(CCCCC(=O)O)CCCc2ccccc2)c(F)c(OC)c1F
Emax / %: 118
//
COMPOUND: COc1cc(C(=O)N(CCCc2ccccc2F)CCOCC(=O)O)cc(OC)c1C
Emax / %: 110
//
COMPOUND: COc1cc(C(=O)N(CCCc2ccc(F)cc2F)CCOCC(=O)O)cc(OC)c1C
Emax / %: 119
//
COMPOUND: COc1cc(C(=O)N(CCCc2ccccc2)CCCC(C)(O)C(=O)O)cc(OC)c1C (centres unmarked)
Emax / %: 125
//
COMPOUND: COc1cc(C(=O)N(CCCc2ccccc2)CCSCC(=O)O)cc(OC)c1C
Emax / %: 114

----------
Target: LPAR1 (Homo sapiens, UniProt Q92633)
Construct: host or cells: U2OS
Sequence (Q92633 whole entry): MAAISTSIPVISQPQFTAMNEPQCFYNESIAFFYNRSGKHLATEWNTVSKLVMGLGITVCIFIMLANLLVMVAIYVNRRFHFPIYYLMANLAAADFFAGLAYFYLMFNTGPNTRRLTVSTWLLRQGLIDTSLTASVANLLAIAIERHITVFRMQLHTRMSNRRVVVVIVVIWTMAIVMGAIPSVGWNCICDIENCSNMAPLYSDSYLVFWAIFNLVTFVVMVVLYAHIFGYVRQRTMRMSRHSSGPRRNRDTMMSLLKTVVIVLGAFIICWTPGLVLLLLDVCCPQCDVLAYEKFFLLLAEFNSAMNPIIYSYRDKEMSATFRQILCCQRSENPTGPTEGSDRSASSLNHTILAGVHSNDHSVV
Assay: LPAR1 Arrestin Assay (arrestin reporter assay)
Assay type: cell-based
Conditions: U2OS cells stably expressing the LPAR1 receptor; 200 nM 18:1 LPA (EC80); read-out: Maximum Inhibition

MOLECULE: COc1cc(C(=O)N(CCCCC(=O)O)CCCc2ccccc2)cc(OC)c1F [Example 99]
EXPERIMENTAL TARGET: LPAR1 (Homo sapiens, UniProt Q92633)
Emax, %: 112
--
MOLECULE: COc1cc(C(=O)N(CCCc2ccccc2)CCSC(C)CC(=O)O)cc(OC)c1C (stereo not drawn) [Example 62]
EXPERIMENTAL TARGET: LPAR1 (Homo sapiens, UniProt Q92633)
Emax, %: 114
--
MOLECULE: COc1cc(C(=O)N(CCCCC(=O)O)CCCc2ccc(C)o2)c(F)c(OC)c1F [Example 175]
EXPERIMENTAL TARGET: LPAR1 (Homo sapiens, UniProt Q92633)
Emax, %: 119

----------
Target: LPAR1 (Homo sapiens)
Construct: host or cells: U2OS
Assay: LPAR1 Arrestin Assay (arrestin reporter assay)
Type: cell-based
Details: U2OS cells stably expressing the LPAR1 receptor; 200 nM 18:1 LPA (EC80); read-out: Maximum Inhibition

COMPOUND STRUCTURE STRING: COc1cc(C(=O)N(CCCc2ccccc2Cl)CCOCC(=O)O)cc(OC)c1C
Emax: 120%
--
COMPOUND STRUCTURE STRING: COc1cc(C(=O)N(CCCCC(=O)O)CCCc2ccccc2)cc(OC)n1
Emax: 113%
--
COMPOUND STRUCTURE STRING: COc1cc(OC)cc(C(=O)N(CCCCC(=O)O)CCCc2ccccc2F)c1
Emax: 125%
--
COMPOUND STRUCTURE STRING: COc1cc(C(=O)N(CCCCC(=O)O)CCCc2ccc(C)o2)cc(OC)c1C1CC1
Emax: 122%
--
COMPOUND STRUCTURE STRING: COc1cc(C(=O)N(CCCc2cccc(F)c2)CCSCC(=O)O)cc(OC)c1C
Emax: 116%
--
COMPOUND STRUCTURE STRING: COc1cc(C(=O)N(CCCCC(=O)O)CCCc2ccccc2)cc(OC)c1Br
Emax: 101%
--
COMPOUND STRUCTURE STRING: COc1cc(C(=O)N(CCCCC(=O)O)CCCc2ccccc2)cc(OC)c1C
Emax: 101%
--
COMPOUND STRUCTURE STRING: COc1cc(C(=O)N(CCCCC(=O)O)CCCc2ccco2)cc(OC)c1C
Emax: 122%
--
COMPOUND STRUCTURE STRING: COc1cc(C(=O)N(CCCCC(=O)O)CCCc2cccc(Cl)c2)cc(OC)c1C
Emax: 114%
--
COMPOUND STRUCTURE STRING: COc1cc(OC)c(F)c(C(=O)N(CCCCC(=O)O)CCCc2ccccc2)c1
Emax: 112%

----------
Target: LPAR1 (Homo sapiens, UniProt Q92633)
Construct: host or cells: U2OS
Assay: IP-One HTRF Assay
Assay type: cell-based
Conditions: U2OS cells stably expressing LPAR1; LPA stimulation; IP-One Tb HTRF kit; read-out: Maximum Inhibition
// reported Emax for each item listed

MOLECULE: COc1cc(C(=O)N(CCCCC(=O)O)CCCc2ccccc2)cc(OC)c1C(F)(F)F [Example 37]
EXPERIMENTAL TARGET: LPAR1 (Homo sapiens, UniProt Q92633)
DISPLAY UNIT: %
Emax: 79
//
MOLECULE: COc1cc(C(=O)N(CCCc2ccccc2F)CCOCC(=O)O)cc(OC)c1C [Example 110]
EXPERIMENTAL TARGET: LPAR1 (Homo sapiens, UniProt Q92633)
DISPLAY UNIT: %
Emax: 82
//
MOLECULE: COc1cc(OC)cc(C(=O)N(CCCCC(=O)O)CCCc2cccc(Cl)c2)c1 [Example 91]
EXPERIMENTAL TARGET: LPAR1 (Homo sapiens, UniProt Q92633)
DISPLAY UNIT: %
Emax: 70
//
MOLECULE: COc1cc(C(=O)N(CCCc2ccccc2)CCOCC(=O)O)cc(OC)c1C [Example 6]
EXPERIMENTAL TARGET: LPAR1 (Homo sapiens, UniProt Q92633)
DISPLAY UNIT: %
Emax: 97
//
MOLECULE: CNS(=O)(=O)NC(=O)CCCCN(CCCc1ccccc1)C(=O)C1(c2ccc(OC)cc2)CC1 [Example 73]
EXPERIMENTAL TARGET: LPAR1 (Homo sapiens, UniProt Q92633)
DISPLAY UNIT: %
Emax: 44
//
MOLECULE: COc1ccc(C2(C(=O)N(CCCc3ccccc3)CCSCC(=O)O)CC2)cc1 [Example 115]
EXPERIMENTAL TARGET: LPAR1 (Homo sapiens, UniProt Q92633)
DISPLAY UNIT: %
Emax: 71
//
MOLECULE: COc1cc(C(=O)N(CCCCC(=O)O)CCCc2ccccc2)cc(OC)c1C1CC1 [Example 35]
EXPERIMENTAL TARGET: LPAR1 (Homo sapiens, UniProt Q92633)
DISPLAY UNIT: %
Emax: 94
//
MOLECULE: COc1cc(C(=O)N(CCCc2ccccc2)CCSCC(=O)O)cc(OC)c1C [Example 44]
EXPERIMENTAL TARGET: LPAR1 (Homo sapiens, UniProt Q92633)
DISPLAY UNIT: %
Emax: 80
//
MOLECULE: COc1cc(C(=O)N(CCCc2ccccc2)CCOC(C)(C)C(=O)O)cc(OC)c1C [Example 55]
EXPERIMENTAL TARGET: LPAR1 (Homo sapiens, UniProt Q92633)
DISPLAY UNIT: %
Emax: 98

----------
Test system: LPA-induced MCP-1 in NRK-49F cells
Experiment: LPA-induced MCP-1 AlphaLISA assay
Type: cell-based
Settings: Rattus norvegicus, final LPA 10 μM, 7 hours, read-out: Maximum Inhibition
MEASURED ATTRIBUTE: Emax (%)

MOLECULE: COc1cc(C(=O)N(CCCc2ccccc2)CCCC(O)C(=O)O)cc(OC)c1C (stereo not drawn) [Example 151]
MEASURED ATTRIBUTE: Emax
REPORTED: 79

MOLECULE: COc1cc(C(=O)N(CCCCC(=O)O)CCCc2ccccc2)cc(OC)c1OC [Example 10]
MEASURED ATTRIBUTE: Emax
REPORTED: 70

MOLECULE: COc1cc(C(=O)N(CCCCC(=O)O)CCCc2ccco2)cc(OC)c1C [Example 173]
MEASURED ATTRIBUTE: Emax
REPORTED: 64

MOLECULE: COc1cc(C(=O)N(CCCc2ccccc2)CCOCC2(C(=O)O)CC2)cc(OC)c1C [Example 59]
MEASURED ATTRIBUTE: Emax
REPORTED: 93

MOLECULE: O=C(O)CCCCN(CCCc1ccccc1)C(=O)C1CC(=O)Nc2cc(F)ccc21 (stereo not drawn) [Example 170]
MEASURED ATTRIBUTE: Emax
REPORTED: 50

MOLECULE: COc1cc(OC)cc(C(=O)N(CCCCP(=O)(O)O)CCCc2ccccc2)c1 [Example 75]
MEASURED ATTRIBUTE: Emax
REPORTED: 65

MOLECULE: COc1cc(OC)cc(C(=O)N(CCCCC(=O)O)CCCc2c(F)cccc2F)c1 [Example 137]
MEASURED ATTRIBUTE: Emax
REPORTED: 28

MOLECULE: COc1cc(C(=O)N(CCCc2ccccc2)CCOCC(=O)O)cc(OC)c1C [Example 6]
MEASURED ATTRIBUTE: Emax
REPORTED: 80

MOLECULE: COc1cc(C(=O)N(CCCCC(=O)O)CCCc2ccccc2)cc(OC)c1C(F)(F)F [Example 37]
MEASURED ATTRIBUTE: Emax
REPORTED: 81

MOLECULE: COc1cc(C(=O)N(CCCCC(=O)O)CCCc2ccccc2)c(F)c(OC)c1F [Example 30]
MEASURED ATTRIBUTE: Emax
REPORTED: 74

MOLECULE: COc1cc(C(=O)N(CCCc2cccc(Cl)c2)CCOCC(=O)O)cc(OC)c1C [Example 109]
MEASURED ATTRIBUTE: Emax
REPORTED: 91

MOLECULE: COc1cc(C(=O)N(CCCCC(=O)O)CCCc2ccc(F)cc2F)cc(OC)c1C [Example 146]
MEASURED ATTRIBUTE: Emax
REPORTED: 79

MOLECULE: CCOc1cc(OCC)cc(C(=O)N(CCCCC(=O)O)CCCc2ccc(C)o2)c1 [Example 176]
MEASURED ATTRIBUTE: Emax
REPORTED: 53

MOLECULE: COc1cc(C(=O)N(CCCc2cc(F)cc(F)c2)CCSCC(=O)O)cc(OC)c1C [Example 125]
MEASURED ATTRIBUTE: Emax
REPORTED: 53

MOLECULE: COc1cc(C(=O)N(CCCCC(=O)NS(=O)(=O)C2CC2)CCCc2ccccc2)cc(OC)c1C [Example 119]
MEASURED ATTRIBUTE: Emax
REPORTED: 80

MOLECULE: COc1cc(C(=O)N(CCCCC(=O)O)CCCc2ccccc2)cc(OC)c1Br [Example 20]
MEASURED ATTRIBUTE: Emax
REPORTED: 89

MOLECULE: COc1cc(C(=O)N(CCCCC(=O)O)CCCc2cccc(Cl)c2)cc(OC)c1C [Example 38]
MEASURED ATTRIBUTE: Emax
REPORTED: 91

MOLECULE: COc1cc(OC)cc(C(=O)N(CCCCC(=O)O)CCCc2ccccc2F)c1 [Example 134]
MEASURED ATTRIBUTE: Emax
REPORTED: 37

MOLECULE: COc1ccc(C2(C(=O)N(CCCCC(=O)O)CCCc3ccccc3)COC2)cc1 [Example 89]
MEASURED ATTRIBUTE: Emax
REPORTED: 65

MOLECULE: COc1cc(C(=O)N(CCCc2cccc(Cl)c2)CCSCC(=O)O)cc(OC)c1C [Example 122]
MEASURED ATTRIBUTE: Emax
REPORTED: 97

MOLECULE: COc1cc(C(=O)N(CCCCC(=O)O)CCCc2cc(F)cc(F)c2)cc(OC)c1C [Example 126]
MEASURED ATTRIBUTE: Emax
REPORTED: 75

MOLECULE: CNS(=O)(=O)NC(=O)CCCCN(CCCc1ccccc1)C(=O)c1cc(OC)cc(OC)c1 [Example 74]
MEASURED ATTRIBUTE: Emax
REPORTED: 77

MOLECULE: O=C(O)CCCCN(CCCc1ccccc1)C(=O)c1ccc2c(c1)OCO2 [Example 80]
MEASURED ATTRIBUTE: Emax
REPORTED: 37

MOLECULE: COc1cc(C(=O)N(CCCc2ccccc2)CCSC(C)CC(=O)O)cc(OC)c1C (stereo not drawn) [Example 62]
MEASURED ATTRIBUTE: Emax
REPORTED: 94
